Target: CDK6/Cyclin D3 (Homo sapiens (Human))
Sequence (Q00534 whole entry): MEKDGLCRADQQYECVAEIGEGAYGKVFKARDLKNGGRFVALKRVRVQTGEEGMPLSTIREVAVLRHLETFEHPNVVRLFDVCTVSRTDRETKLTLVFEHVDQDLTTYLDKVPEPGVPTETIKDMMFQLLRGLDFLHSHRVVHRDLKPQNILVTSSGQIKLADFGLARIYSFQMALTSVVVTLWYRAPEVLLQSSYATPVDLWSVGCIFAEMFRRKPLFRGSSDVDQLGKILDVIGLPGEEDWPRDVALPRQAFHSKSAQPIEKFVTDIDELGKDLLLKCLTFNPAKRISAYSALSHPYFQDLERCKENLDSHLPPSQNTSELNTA
Sequence (P30281 whole entry partner): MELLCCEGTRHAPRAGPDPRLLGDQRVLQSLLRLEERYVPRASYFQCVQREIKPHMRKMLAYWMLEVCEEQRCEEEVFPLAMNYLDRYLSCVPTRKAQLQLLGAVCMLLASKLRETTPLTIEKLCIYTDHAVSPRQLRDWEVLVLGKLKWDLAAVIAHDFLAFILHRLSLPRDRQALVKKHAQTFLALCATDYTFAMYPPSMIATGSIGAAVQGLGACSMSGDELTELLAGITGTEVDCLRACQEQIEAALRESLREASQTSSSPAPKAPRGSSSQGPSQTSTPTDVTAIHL
Assay: CDK6/Cyclin D3 mobility shift assay
Conditions: activated CDK6/Cyclin D3, 3.5 mM ATP, Morrison fit; read-out: CDK6_D3 Ki
// classify(record): look up Ki in ranges band A = under 5 nM, band B = from 5 nM up to 30 nM, band C = 30 nM and over

// below: answered compounds
Cc1nc2c(F)cc(-c3nc(N[C@@H]4CCN(S(C)(=O)=O)C[C@H]4O)ncc3Cl)cc2n1C(C)C : band A
CC1CNCc2nc3c(F)cc(-c4nc(N[C@@H]5CCOC[C@H]5O)ncc4Cl)cc3n21 (single isomer, unassigned) [Example A56] : band B
C[C@@H](O)c1nc2c(F)cc(-c3nc(N[C@@H]4CCOC[C@H]4O)ncc3Cl)cc2n1C(C)(C)C : band C
CC(C)c1c2cc(-c3nc(N[C@@H]4CCN(S(C)(=O)=O)C[C@H]4O)ncc3Cl)ccc2nn1C : band B
CC(C)NCc1nc2c(F)cc(-c3nc(N[C@@H]4CCOC[C@H]4O)ncc3Cl)cc2n1C(C)C : band C

Which class is correct for the following compound? `CC(C)(C)n1cnc2c(F)cc(-c3nc(N[C@@H]4CCN(C(=O)C5(F)CNC5)C[C@H]4O)ncc3Cl)cc21`
band A

Lab note: sort COC(=O)N1CC[C@@H](Nc2ncc(Cl)c(-c3cc(F)c4ncn(C5CCOC5)c4c3)n2)[C@H](O)C1 (single isomer, unassigned) [Example F03] into the matching Ki band.
band B

State the band of `Cc1nc2cc(F)c(-c3ccnc(N[C@@H]4CCN(S(C)(=O)=O)C[C@H]4O)n3)cc2n1C(C)C`
band C

Please classify: `CC(C)n1cnc2c(F)cc(-c3nc(N[C@@H]4CCN(C(=O)C5(N)CC5)C[C@H]4O)ncc3Cl)cc21`
band B

Into which category would you place `CS(=O)(=O)N1CC[C@@H](Nc2ncc(Cl)c(-c3cc(F)c4nc(CO)n(CC(F)(F)F)c4c3)n2)[C@H](O)C1` ?
band A

Exercise: read the entry `Cc1nc2ncc(-c3nc(N[C@@H]4CCN(S(C)(=O)=O)C[C@H]4O)ncc3Cl)cc2n1C(C)C` and state which class it falls under.
band C

Entry CC(C)n1c(CC(N)C(F)F)nc2c(F)cc(-c3nc(N[C@@H]4CCOC[C@H]4O)ncc3Cl)cc21 (single isomer, unassigned) [Example A58] belongs to which category?
band B
